# System: Rattus norvegicus
# protocol_notes: Gastrointestinal toxicity in Wistar albino Rattus norvegicus (rat) stress model assessed as ulcerogenicity index at 25 mg/kg/day, po for 4 days measured on day 5 relative to diclofenac sodium
# Assay type: organism-based
# Design: route oral
# condition_set: in vivo, 96 h
Give Activity for every item shown.
Record the value in %, omitting the unit from your answer.

In: Form field: Activity recorded for "Sc1nnc(-c2csc(-c3ccccc3)n2)o1" with Rattus norvegicus (enter value)
Out: 10

In: Consider next the molecule "O=c1[nH]nc(-c2csc(-c3ccccc3)n2)o1" in the same way.
Out: 10

In: Consider next the molecule "S=c1oc(-c2csc(-c3ccccc3)n2)nn1CN1CCCCC1" in the same way.
Out: 10

In: Consider next the molecule "Nc1cc(-c2ccccc2)nn1C(=O)c1csc(-c2ccccc2)n1" in the same way.
Out: 10

In: Consider next the molecule "CCOC(=O)c1cnn(C(=O)c2csc(-c3ccccc3)n2)c1N" in the same way.
Out: 10

---

# Test system: Rattus norvegicus
# protocol_notes: Gastrointestinal toxicity in Wistar albino Rattus norvegicus (rat) stress model assessed as ulcerogenicity index at 25 mg/kg/day, po for 4 days measured on day 5
# Format: organism-based
# Parameters: route oral
# condition_set: in vivo, 96 h
endpoint_label: UI
Lab note: jot the number down without any unit.

In: Entry "Nc1cc(-c2ccccc2)nn1C(=O)c1csc(-c2ccccc2)n1" has what UI?
Out: 0.62

In: Consider next the compound "Sc1nnc(-c2csc(-c3ccccc3)n2)o1" in the same way.
Out: 0.52

In: Consider next the compound "O=c1[nH]nc(-c2csc(-c3ccccc3)n2)o1" in the same way.
Out: 0.44

In: Consider next the compound O=C([O-])Cc1ccccc1Nc1c(Cl)cccc1Cl.[Na+] [DICLOFENAC SODIUM] in the same way.
Out: 4.67

In: Consider next the compound "S=c1oc(-c2csc(-c3ccccc3)n2)nn1CN1CCCCC1" in the same way.
Out: 0.54

In: Consider next the compound "CCOC(=O)c1cnn(C(=O)c2csc(-c3ccccc3)n2)c1N" in the same way.
Out: 0.6
